# STUDY_SYSTEM: T1, Tim3-ECD-His-Biotin (human, UniProt Q8TDQ0 22-202, biotinylated with BirA Ligase)
# T1 construct: Coated on streptavidin plates; also called human Tim3 (ELISA); Biochem Human
# TEST_METHOD_NOTES: ELISA on human Tim3
MEASURE_NAME: EC50 (µg/mL)
# number only, unit µg/mL dropped from output

QUERY: Given Tim3_0016MutNS (antibody, V domains shown, also called Tim3_0016 with HVR-L1 variant 2_NS) VH: QVTLKESGPGILQPSQTLRLTCSFSGFSLSTSGMSVGWIRQPSGKGLEWLAHIWLNDDVFFNPALKSRLTISKDTSNNQVFLQIASVVTADTATYYCVRANGYLYALDYWGQGTSVTVSS VL: QIVLTQSPAIMSASPGQKVTITCSASSSVSYTQWYQQKLGSSPKLWIYDAFKLAPGVPARFSGSGTGTSYSLTISSMEAEDAASYFCHQWSSYPWTFGGGTKLEIK , state its recorded EC50.
RESULT: 0.0085

QUERY: Here is the next binder: anti-TIM3 antibody Tim3_0016 variant (Tim3_0018) (antibody, V domains shown, Mouse monoclonal from hybridoma; also called TIM3-0016 variant (0018); Tim3_0016 variant 0018-A488) VH: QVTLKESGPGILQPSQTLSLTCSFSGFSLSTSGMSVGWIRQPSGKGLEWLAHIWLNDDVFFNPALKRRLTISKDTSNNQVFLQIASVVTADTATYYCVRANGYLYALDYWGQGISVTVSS VL: QIVLTQSPAIMSASPGQKVTITCSASSSVNYTQWYQQKLGSSPKLWIYDAFKLAPGVPARFSGSGTGTSYSLTISSMEAEDAASYFCHQWSSYPWTFGGGTKLEIK
RESULT: 0.0151

QUERY: Same for Tim3_0016MutNQ (antibody, V domains shown, also called Tim3_0016 with HVR-L1 variant 1_NQ) VH: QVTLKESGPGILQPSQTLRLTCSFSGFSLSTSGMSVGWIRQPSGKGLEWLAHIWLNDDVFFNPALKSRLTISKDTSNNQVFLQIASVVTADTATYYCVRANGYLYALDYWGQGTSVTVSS VL: QIVLTQSPAIMSASPGQKVTITCSASSSVQYTQWYQQKLGSSPKLWIYDAFKLAPGVPARFSGSGTGTSYSLTISSMEAEDAASYFCHQWSSYPWTFGGGTKLEIK
RESULT: 0.0076

QUERY: Item: Tim3_0018MutNS (antibody, V domains shown, also called Tim3_0016 variant (0018) with HVR-L1 variant 2_NS) VH: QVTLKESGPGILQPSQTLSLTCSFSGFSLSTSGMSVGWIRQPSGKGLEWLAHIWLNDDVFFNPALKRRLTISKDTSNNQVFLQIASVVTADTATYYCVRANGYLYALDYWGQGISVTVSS VL: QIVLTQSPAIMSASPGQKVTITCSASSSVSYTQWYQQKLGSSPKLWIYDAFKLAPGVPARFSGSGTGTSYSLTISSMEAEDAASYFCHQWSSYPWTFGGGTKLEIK
RESULT: 0.0103

QUERY: Another: Tim3_0018MutNQ (antibody, V domains shown, made in HEK293; also called Tim3_0016 variant (0018) with HVR-L1 variant 1_NQ) VH: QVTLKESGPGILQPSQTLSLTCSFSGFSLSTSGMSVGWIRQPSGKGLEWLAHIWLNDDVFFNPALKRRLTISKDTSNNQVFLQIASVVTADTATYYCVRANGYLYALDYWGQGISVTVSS VL: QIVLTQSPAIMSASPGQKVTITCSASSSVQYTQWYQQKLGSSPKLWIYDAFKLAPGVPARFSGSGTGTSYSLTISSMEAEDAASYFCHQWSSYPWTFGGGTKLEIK
RESULT: 0.012
